# System: VDR:RXRa (NR concentration 270 nM, RXRa partner concentration 90 nM)
# Method notes: PBM binding z-score (relative to random genomic background probes); higher = stronger binding; sequences stand for … in GC…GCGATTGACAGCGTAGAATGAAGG
Value kind: PBM binding z-score

>>> value_reported("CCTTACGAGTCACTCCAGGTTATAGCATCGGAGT")
1.24
>>> value_reported("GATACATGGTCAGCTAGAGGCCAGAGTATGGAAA")
-0.32
>>> value_reported("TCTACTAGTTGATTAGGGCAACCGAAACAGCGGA")
0.208
>>> value_reported("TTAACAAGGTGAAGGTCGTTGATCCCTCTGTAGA")
1.35
>>> value_reported("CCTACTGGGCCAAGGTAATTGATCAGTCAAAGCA")
-0.552
>>> value_reported("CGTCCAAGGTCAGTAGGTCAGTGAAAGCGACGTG")
3.29
>>> value_reported("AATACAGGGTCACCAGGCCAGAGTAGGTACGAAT")
4.82
>>> value_reported("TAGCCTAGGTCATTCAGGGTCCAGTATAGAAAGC")
4.41
>>> value_reported("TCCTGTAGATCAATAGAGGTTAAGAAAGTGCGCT")
1.67
>>> value_reported("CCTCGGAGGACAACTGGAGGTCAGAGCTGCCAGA")
2.08
>>> value_reported("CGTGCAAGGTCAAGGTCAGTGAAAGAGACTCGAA")
4.83
>>> value_reported("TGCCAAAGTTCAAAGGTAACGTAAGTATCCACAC")
4.97
>>> value_reported("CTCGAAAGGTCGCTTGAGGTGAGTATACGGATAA")
3.4
>>> value_reported("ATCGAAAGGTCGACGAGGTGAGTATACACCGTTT")
5.23
>>> value_reported("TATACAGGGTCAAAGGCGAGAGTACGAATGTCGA")
4.59
>>> value_reported("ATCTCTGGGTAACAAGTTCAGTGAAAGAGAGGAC")
2.8
>>> value_reported("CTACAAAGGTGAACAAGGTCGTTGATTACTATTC")
6.38
>>> value_reported("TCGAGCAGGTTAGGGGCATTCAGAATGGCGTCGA")
0.187

----------
# Tested on: PPARg:RXRa 30nM:10nM, anti-RXR (NR concentration 30 nM, RXRa partner concentration 10 nM)
# Method notes: PBM binding z-score (relative to random genomic background probes); higher = stronger binding; sequences stand for … in GC…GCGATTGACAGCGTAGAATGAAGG
Value kind: PBM binding z-score

>>> value_reported("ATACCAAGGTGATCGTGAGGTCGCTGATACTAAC")
-0.172
>>> value_reported("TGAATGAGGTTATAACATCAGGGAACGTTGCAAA")
0.946
>>> value_reported("TCTTGTAGATCAACAGGAGGTGAAGAAAGATCGA")
2.7
>>> value_reported("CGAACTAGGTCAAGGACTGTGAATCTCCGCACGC")
4.05
>>> value_reported("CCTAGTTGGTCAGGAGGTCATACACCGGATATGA")
1.58
>>> value_reported("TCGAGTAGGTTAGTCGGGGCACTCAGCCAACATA")
0.995
>>> value_reported("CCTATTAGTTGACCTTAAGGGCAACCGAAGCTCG")
1.29
>>> value_reported("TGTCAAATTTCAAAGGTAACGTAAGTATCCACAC")
1.62
>>> value_reported("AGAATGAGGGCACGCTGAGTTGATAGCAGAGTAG")
0.921
>>> value_reported("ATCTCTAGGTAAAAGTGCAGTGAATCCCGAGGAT")
3.66
>>> value_reported("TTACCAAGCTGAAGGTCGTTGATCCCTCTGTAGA")
0.492
>>> value_reported("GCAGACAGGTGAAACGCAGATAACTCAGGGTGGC")
-0.367
>>> value_reported("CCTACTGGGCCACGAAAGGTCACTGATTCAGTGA")
2.2
>>> value_reported("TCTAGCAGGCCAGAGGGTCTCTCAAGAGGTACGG")
1.38
>>> value_reported("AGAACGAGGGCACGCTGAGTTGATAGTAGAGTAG")
0.448
>>> value_reported("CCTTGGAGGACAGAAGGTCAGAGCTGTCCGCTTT")
0.178
>>> value_reported("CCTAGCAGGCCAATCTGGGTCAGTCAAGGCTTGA")
-0.729
>>> value_reported("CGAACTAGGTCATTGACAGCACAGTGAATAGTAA")
3.86
>>> value_reported("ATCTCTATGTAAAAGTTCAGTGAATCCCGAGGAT")
3.31
>>> value_reported("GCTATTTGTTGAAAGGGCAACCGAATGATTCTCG")
0.957
>>> value_reported("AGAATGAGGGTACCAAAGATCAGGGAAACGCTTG")
0.506
>>> value_reported("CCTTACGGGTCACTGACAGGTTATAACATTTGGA")
1.74
>>> value_reported("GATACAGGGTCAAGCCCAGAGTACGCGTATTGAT")
2.34
>>> value_reported("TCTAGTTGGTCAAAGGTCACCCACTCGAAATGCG")
10.9
>>> value_reported("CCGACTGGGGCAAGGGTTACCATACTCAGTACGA")
6.82
>>> value_reported("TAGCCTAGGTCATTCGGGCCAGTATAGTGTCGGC")
-0.0237
>>> value_reported("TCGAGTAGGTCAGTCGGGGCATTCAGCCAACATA")
1.39
>>> value_reported("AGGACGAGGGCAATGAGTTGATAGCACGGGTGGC")
-0.168
>>> value_reported("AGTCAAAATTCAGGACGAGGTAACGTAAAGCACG")
0.281
>>> value_reported("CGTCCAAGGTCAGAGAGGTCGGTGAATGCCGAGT")
0.323
>>> value_reported("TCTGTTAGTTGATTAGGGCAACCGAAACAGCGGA")
3.28
>>> value_reported("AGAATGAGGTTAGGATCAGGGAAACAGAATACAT")
0.649
>>> value_reported("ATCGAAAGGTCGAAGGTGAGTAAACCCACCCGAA")
1.91
>>> value_reported("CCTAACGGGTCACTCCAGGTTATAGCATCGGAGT")
0.338
>>> value_reported("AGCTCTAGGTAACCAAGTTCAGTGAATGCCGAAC")
-0.0768
>>> value_reported("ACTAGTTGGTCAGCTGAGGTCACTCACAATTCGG")
0.169
>>> value_reported("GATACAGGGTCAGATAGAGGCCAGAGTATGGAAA")
1.18
>>> value_reported("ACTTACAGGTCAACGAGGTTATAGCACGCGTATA")
2.14
>>> value_reported("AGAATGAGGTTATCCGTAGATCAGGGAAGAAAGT")
0.418
>>> value_reported("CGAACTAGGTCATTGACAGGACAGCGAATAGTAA")
3.94
>>> value_reported("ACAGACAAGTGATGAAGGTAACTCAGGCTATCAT")
-0.0857
>>> value_reported("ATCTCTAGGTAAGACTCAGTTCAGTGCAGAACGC")
0.281
>>> value_reported("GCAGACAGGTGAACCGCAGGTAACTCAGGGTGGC")
-0.52
>>> value_reported("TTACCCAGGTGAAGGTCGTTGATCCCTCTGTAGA")
0.687
>>> value_reported("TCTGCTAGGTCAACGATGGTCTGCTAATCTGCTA")
1.66

----------
// reported PBM binding z-score per item
# Test system: RXRa DBDmut IVT, anti-RXR (DBD mutation: RXRa K156A/R161A, NR concentration 90 nM)
# Method notes: PBM binding z-score (relative to random genomic background probes); higher = stronger binding; sequences stand for … in GC…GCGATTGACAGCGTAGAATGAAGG
Value kind: PBM binding z-score

>>> value_reported("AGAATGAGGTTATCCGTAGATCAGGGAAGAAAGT")
1.82
>>> value_reported("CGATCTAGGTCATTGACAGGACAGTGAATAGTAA")
2.67
>>> value_reported("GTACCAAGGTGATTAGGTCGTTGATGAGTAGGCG")
0.0245
>>> value_reported("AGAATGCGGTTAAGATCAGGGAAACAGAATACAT")
-0.536
>>> value_reported("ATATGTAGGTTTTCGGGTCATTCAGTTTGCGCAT")
1.88
>>> value_reported("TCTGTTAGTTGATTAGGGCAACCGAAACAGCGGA")
0.605
>>> value_reported("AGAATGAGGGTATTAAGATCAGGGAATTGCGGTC")
0.633
>>> value_reported("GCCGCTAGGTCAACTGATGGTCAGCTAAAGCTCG")
1.45
>>> value_reported("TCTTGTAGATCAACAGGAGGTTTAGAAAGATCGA")
0.348
>>> value_reported("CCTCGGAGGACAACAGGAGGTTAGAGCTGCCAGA")
0.257
>>> value_reported("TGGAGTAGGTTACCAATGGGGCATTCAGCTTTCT")
-0.418
>>> value_reported("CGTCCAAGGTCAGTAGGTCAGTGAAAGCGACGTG")
2.72
>>> value_reported("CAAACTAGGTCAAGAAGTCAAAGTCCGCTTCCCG")
1.32
>>> value_reported("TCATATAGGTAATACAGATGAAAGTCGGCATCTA")
1.28
>>> value_reported("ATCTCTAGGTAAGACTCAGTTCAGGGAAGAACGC")
0.408
>>> value_reported("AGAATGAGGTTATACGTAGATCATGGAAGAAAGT")
1.74
>>> value_reported("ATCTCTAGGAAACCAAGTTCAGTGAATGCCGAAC")
0.614
>>> value_reported("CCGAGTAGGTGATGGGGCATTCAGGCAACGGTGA")
-0.961
>>> value_reported("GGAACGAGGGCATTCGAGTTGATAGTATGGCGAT")
3.39
>>> value_reported("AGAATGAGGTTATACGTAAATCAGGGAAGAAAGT")
1.72
>>> value_reported("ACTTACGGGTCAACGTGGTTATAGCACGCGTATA")
2.08
>>> value_reported("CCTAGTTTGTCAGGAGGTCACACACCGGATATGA")
1.93
>>> value_reported("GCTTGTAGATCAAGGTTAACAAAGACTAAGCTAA")
0.051
>>> value_reported("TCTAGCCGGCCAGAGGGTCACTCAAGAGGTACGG")
-0.0421
>>> value_reported("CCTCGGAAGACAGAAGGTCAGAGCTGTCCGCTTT")
0.101
>>> value_reported("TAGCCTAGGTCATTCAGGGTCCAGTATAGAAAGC")
2
>>> value_reported("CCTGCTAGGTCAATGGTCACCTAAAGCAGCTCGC")
2.07
>>> value_reported("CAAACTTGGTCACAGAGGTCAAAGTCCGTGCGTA")
2.34
>>> value_reported("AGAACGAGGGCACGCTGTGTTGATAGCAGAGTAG")
1.76
>>> value_reported("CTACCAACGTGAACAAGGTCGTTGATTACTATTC")
1.53
>>> value_reported("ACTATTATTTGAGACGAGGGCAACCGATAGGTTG")
1.03
>>> value_reported("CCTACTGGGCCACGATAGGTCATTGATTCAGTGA")
-0.409
>>> value_reported("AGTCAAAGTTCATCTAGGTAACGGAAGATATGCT")
4.58
>>> value_reported("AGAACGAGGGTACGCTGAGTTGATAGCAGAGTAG")
0.994
>>> value_reported("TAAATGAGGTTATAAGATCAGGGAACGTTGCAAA")
1.21
>>> value_reported("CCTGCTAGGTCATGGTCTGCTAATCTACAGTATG")
2.02
>>> value_reported("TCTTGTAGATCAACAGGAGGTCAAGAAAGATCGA")
0.518

Provenance of the data: the supplement of paper PMC6555819
